Give protein stability index for every item shown.
B1: KCNG1 (parent)
chain: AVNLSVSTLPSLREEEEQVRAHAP

# Variants of: B1
# test-method-notes: protein stability index of a GFP-peptide fusion (GPS, HEK-293T) (PSI 1-6); higher = more stable;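 note: lentivirally expressed fusions sorted by FACS into six bins by GFP to DsRed ratio, PSI derived from sequencing read proportions per bin multiplied by bin number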
# measurement-parameters: c terminus: a fixed tail appended
Numbers only.

INSERT INTO assay_data (sequence_input, property_measured, experimental_result) VALUES
  ('ACNLSVSTLPSLREEEEQVRAHAP [V2C]', 'protein stability index', 4.98),
  ('AVNLSVSTFPSLREEEEQVRAHAP [L9F]', 'protein stability index', 5.08),
  ('AVNLSVSTLPSLREEEEQVRAHCP [A23C]', 'protein stability index', 4.86);

Record protein stability index for all entries; do not skip any.
1. AVNLSVSTLPPLREEEEQVRAHAP [S11P]
2. AVNLSVSTLPKLREEEEQVRAHAP [S11K]
3. AVNLSVSTLPSLRSEEEQVRAHAP [E14S]
4. AVNLSVSTLRSLREEEEQVRAHAP [P10R]
5. AVTLSVSTLPSLREEEEQVRAHAP [N3T]
6. AVNLSVSTLPSLREEEESVRAHAP [Q18S]

[4.93, 5.13, 4.98, 4.29, 4.75, 5.26]
